- Test system: TK-10 renal
- EXPERIMENTAL PROTOCOL: NCI tumour cell line growth inhibition, 48 h
What TGI was measured for each of the following?

{"MOLECULE": "O=C1CCc2c(sc3ncnc(Nc4cccc(Br)c4)c23)C1", "TGI": "14.5 µM"}

# return TGI for each item in the list
1. CC1=NNC(N)=N/C1=C\C(Sc1ccc(Cl)cc1)c1ccc(Cl)cc1Cl (stereo unspecified)
2. Oc1[nH]c2ccccc2c1N=NC(=S)NCc1ccccn1
3. Clc1ccc2c(NCCNc3nc(Cl)nc4ccccc34)ccnc2c1
4. N#Cc1nc(C(=O)c2ccccc2)oc1N
5. COC1OC(=O)C(OC)C(OC)C1OC (stereo unspecified)
6. CCc1cc2c(c3[nH]ccc13)[C@@H](C)C[C@H]2C
7. CCCCCC(=O)OCC1(CO)C/C(=C/CC(C(C)C)C(C)C)C(=O)O1 (stereo unspecified)

Marked response:
45.9 µM
18.3 µM
3.46 µM
> 100 µM
> 100 µM
36.8 µM
> 75 µM

---

- Tested on: KM20L2 colon
- EXPERIMENTAL PROTOCOL: NCI tumour cell line growth inhibition, 48 h
OUTCOME MEASURE: TGI

{"MOLECULE": "CN(C)/C=C/C(=O)c1cccc(C(=O)/C=C/N(C)C)n1", "TGI": "> 100 µM"}
{"MOLECULE": "COc1ccc2nc(NC(=O)C(=O)C(C#N)c3ccc(CC#N)cc3)sc2c1 (stereo unspecified)", "TGI": "> 100 µM"}
{"MOLECULE": "CC(C(=O)C(C)O[Si](c1ccccc1)(c1ccccc1)C(C)(C)C)=P(c1ccccc1)(c1ccccc1)c1ccccc1 (stereo unspecified)", "TGI": "8.66 µM"}
{"MOLECULE": "CC(C)C(NCc1c2ccccc2nc2ccccc12)C(=O)O (stereo unspecified)", "TGI": "> 100 µM"}
{"MOLECULE": "C/C(=N/OCCC(=O)O)C1CC1", "TGI": "> 100 µM"}

Exam item: What does the data say about its TGI? Entry: CN(C)CCSc1nccc(-c2ccc(-c3ccnc(SCCN(C)C)n3)s2)n1
Marked response: 23.6 µM

---

I'd be grateful if you could share measured GI50 for these entries.
- Tested on: HCC-2998 colon
- EXPERIMENTAL PROTOCOL: NCI tumour cell line growth inhibition, 48 h

// worked examples, GI50 included
{"COMPOUND SMILES": "COc1ccc(OC)c(/C=C/C(=O)c2ccc(SC)cc2)c1", "GI50": "4810 nM"}
{"COMPOUND SMILES": "CCC[CH2][Sn]1([CH2]CCC)[O]N=Cc2ccccc2[O]1", "GI50": "1320 nM"}
{"COMPOUND SMILES": "N#CCCCCCn1c2ccccc2c2c3c(c4c5ccccc5[nH]c4c21)C(=O)N(O)C3=O", "GI50": "1820 nM"}
{"COMPOUND SMILES": "CCOC(=O)Nc1ccc2nc(Sc3ccc(Cl)cc3)sc2c1", "GI50": "15300 nM"}

Now look at this entry.
Exam item: I'd like to know its GI50. The compound in question is Cc1ccc(/C=C2\CN(C(=O)CCN3CCC(=NO)CC3)C/C(=C\c3ccc(C)cc3)C2=O)cc1
Marked response: 1570 nM
